target: Lysine-specific demethylase 4A (Homo sapiens); assay: qHTS Assay for Inhibitors of JMJD2A-Tudor Domain; settings: AlphaScreen JMJD2A-Tudor / H3K4me3 peptide binding; series mostly up to 114 µM; note: nearly all actives have a fitted effect of over 50% in size
Among all 390,000 compounds or so, about 17,000 (4.4%) were called active. Another 8% or so got no clear call; they are omitted. Calls come from the whole dose curve; as a rule, active = well fitted inhibition curve with a large enough effect; inconclusive = small, poorly fitted or top-dose-only effect; inactive = no such curve, though single readings can be large or run the other way. For the sample, actives were picked, then their nearest neighbours and some compounds at random.
Outcome codes: active, inactive

>>> classification("O=C(NCCCN1CCOCC1)c1ccc2c(c1)N(Cc1cccc(F)c1)C(=O)c1ccccc1S2")
"inactive"
>>> classification("O=C(Cn1ncn2nc(-c3cccs3)cc2c1=O)NCc1cccc(Br)c1")
"inactive"
>>> classification("CN1CCN(CCCNC(=O)c2ccc(/C=C3\\Oc4ccccc4N(Cc4ccc(Cl)cc4)C3=O)cc2)CC1")
"inactive"
>>> classification("CCC(C(=O)Nc1cccc(-c2nc3cccnc3s2)c1C)c1ccccc1 (stereo unspecified)")
"inactive"
>>> classification("CC(=NNC(=S)N1CCCCCC1)c1ccccn1")
"active"
>>> classification("O=C(CCS(=O)(=O)c1ccccc1)N(Cc1cccnc1)c1nc2c(F)cccc2s1")
"inactive"
>>> classification("COc1ccnc(Oc2ccccc2)c1-c1ncn[nH]1")
"inactive"
>>> classification("COc1ccc(OC)c(CCNC(=O)c2nn(C)c3c2CS(=O)(=O)c2ccccc2-3)c1")
"inactive"
>>> classification("Cc1cccc(NC(=O)Cn2nc(-c3ccc(Cl)cc3)c3ccccc3c2=O)c1")
"inactive"
>>> classification("CC1(C)CC(=O)C=C(N2CCOCC2)C1")
"inactive"
>>> classification("Cc1ccc(OCCSc2nc(-c3cccs3)nc3cc(=O)[nH]n23)cc1Cl")
"inactive"

----------
target: Lysine-specific demethylase 4A (Homo sapiens) (UniProt O75164); assay: qHTS Assay for Inhibitors of JMJD2A-Tudor Domain; settings: AlphaScreen JMJD2A-Tudor / H3K4me3 peptide binding; series mostly up to 114 µM; note: nearly all actives have a fitted effect of over 50% in size; note: potency is the fitted concentration of half-maximal effect
Sequence (O75164 whole entry, looked up, the tested form may be a part): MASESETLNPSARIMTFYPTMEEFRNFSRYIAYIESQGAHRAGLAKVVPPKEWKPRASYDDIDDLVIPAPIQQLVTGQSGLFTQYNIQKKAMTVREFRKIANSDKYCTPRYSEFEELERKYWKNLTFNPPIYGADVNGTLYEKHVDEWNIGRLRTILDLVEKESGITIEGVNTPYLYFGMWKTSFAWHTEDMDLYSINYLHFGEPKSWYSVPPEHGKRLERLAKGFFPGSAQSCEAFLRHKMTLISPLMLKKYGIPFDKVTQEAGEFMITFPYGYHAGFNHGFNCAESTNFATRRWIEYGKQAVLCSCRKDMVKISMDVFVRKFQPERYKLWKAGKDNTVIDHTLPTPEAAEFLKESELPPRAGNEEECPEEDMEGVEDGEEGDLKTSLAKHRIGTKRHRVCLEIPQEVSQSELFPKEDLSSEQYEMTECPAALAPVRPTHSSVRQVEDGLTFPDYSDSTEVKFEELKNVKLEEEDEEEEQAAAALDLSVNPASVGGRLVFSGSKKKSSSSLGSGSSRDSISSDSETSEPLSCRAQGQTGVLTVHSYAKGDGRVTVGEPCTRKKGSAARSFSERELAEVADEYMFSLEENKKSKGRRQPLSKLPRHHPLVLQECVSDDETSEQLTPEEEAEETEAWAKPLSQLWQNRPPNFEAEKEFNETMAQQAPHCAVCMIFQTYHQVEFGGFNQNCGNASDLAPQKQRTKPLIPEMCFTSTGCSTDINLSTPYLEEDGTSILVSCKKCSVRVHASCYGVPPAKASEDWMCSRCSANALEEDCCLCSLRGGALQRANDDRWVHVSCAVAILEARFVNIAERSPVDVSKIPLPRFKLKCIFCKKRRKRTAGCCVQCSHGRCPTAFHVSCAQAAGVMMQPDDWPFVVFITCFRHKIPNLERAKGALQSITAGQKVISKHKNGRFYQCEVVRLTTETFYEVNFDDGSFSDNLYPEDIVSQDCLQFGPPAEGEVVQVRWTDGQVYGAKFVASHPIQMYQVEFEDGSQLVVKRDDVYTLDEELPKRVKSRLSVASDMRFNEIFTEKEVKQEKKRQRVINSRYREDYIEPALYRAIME
In all, about 390,000 compounds went through this assay and about 17,000 (4.4%) were called active. About 8% were inconclusive and are not listed. The sample holds actives, similar compounds and a random draw of the others, so the mix is not that of the screen.
EXPERIMENTAL ENDPOINT: Potency

>>> result_value("CCc1cccc(NC(=O)c2cc(-c3ccccc3)n[nH]2)c1")
"inactive"
>>> result_value("COc1ccccc1Nc1ncnc2c1oc1ccccc12")
"inactive"
>>> result_value("Cc1cc(NC(=O)CC(C)C)cc(-c2nc3ncccc3o2)c1O")
"inactive"
>>> result_value("CN1CCN(CCCCOc2cccc3ccccc23)CC1")
"inactive"
>>> result_value("c1ccc(C2CNCc3c2ccc2ccccc32)cc1 (stereo not drawn)")
"inactive"
>>> result_value("O=C(CCn1c(=S)[nH]c2ccccc2c1=O)NCCCN1CCCC1=O")
"17.8 µM (active)"
>>> result_value("COc1cc(C(=O)Nc2ccc(OCc3cc(=O)n4ccc(C)cc4n3)cc2)cc(OC)c1OC")
"inactive"
>>> result_value("COc1ccc(S(=O)(=O)c2c(Nc3cccc(Cl)c3)sc(C(=O)c3ccccc3)c2N)cc1")
"inactive"
>>> result_value("CCN(CC)CCOCCOc1ccc(Cl)c2ccccc12")
"25.1 µM (active)"
>>> result_value("c1ccc2c(CCN3CCNC[C@H]3Cc3cccc4ccccc34)cccc2c1")
"56.2 µM (active)"
>>> result_value("COC(=O)c1cnc(Nc2cc(C)ccc2OC)c2ccccc12")
"inactive"
>>> result_value("CCOc1cc2[nH]c(=O)n(Cc3ccc(C(=O)NCCCN4CCCC4=O)cc3)c(=O)c2cc1OCC")
"inactive"
>>> result_value("Cc1ccc(NC(=O)c2oc3ccccc3c2NC(=O)Cc2cccs2)cc1")
"inactive"
>>> result_value("Cc1ccccc1Nc1nc(N)nc(CN2CCN(c3ccccn3)CC2)n1")
"56.2 µM (active)"
>>> result_value("O=C(CC1Oc2ccccc2NC1=O)NCc1ccc(F)cc1 (stereo not drawn)")
"inactive"
>>> result_value("COC(=O)c1c(NC(=O)c2cc(=O)c3c(C)cc(C)cc3o2)sc2c1CCCC2")
"inactive"
>>> result_value("CCN1CCN(CCCCOc2ccccc2F)CC1")
"0.794 µM (active)"
>>> result_value("COc1cccc2c1cc1c(=O)n(CC(=O)N3CCN(c4ccccc4)CC3)nc(C)n12")
"inactive"
